Test: Tmax in ICR mouse at 2 mg/kg, iv measured upto 12 hrs by LC-MS/MS analysis
Assay type: ADME, organism-based
Conditions: in vivo
valueKind: Tmax (min)
Answers are plain numbers, in min.

// Input: C=CC(=O)Nc1cccc(-c2nc(NC3CCN(C)CC3)c3cc(OC)c(OC)cc3n2)c1 . Output its Tmax only.
25.2

---

Experiment: AUC(0 to t) in ICR mouse at 2 mg/kg, iv measured upto 12 hrs by LC-MS/MS analysis
Assay type: ADME, organism-based
Conditions: in vivo
valueKind: AUC(0-t) at 12 h (ng·h/mL)
Give bare numbers, in ng·h/mL.

Specify reported AUC(0-t) at 12 h for the compound shown: C=CC(=O)Nc1cccc(-c2nc(NC3CCN(C)CC3)c3cc(OC)c(OC)cc3n2)c1
1650

---

Test: AUC(0 to infinity) in ICR mouse at 2 mg/kg, iv measured upto 12 hrs by LC-MS/MS analysis
Type: ADME, organism-based
Conditions: in vivo
valueKind: AUC(0-inf) (µg·h/mL)
Answers are plain numbers, in µg·h/mL.

Consider the molecule C=CC(=O)Nc1cccc(-c2nc(NC3CCN(C)CC3)c3cc(OC)c(OC)cc3n2)c1 . State its measured AUC(0-inf).
1.69

Every entry's value here was drawn from ChEMBL document CHEMBL5634121.
